Target: recombinant DYRK1A kinase (Homo sapiens (Human))
Test: DYRK1A kinase assay (Ser/Thr 18 peptide Z-lyte FRET)
Details: DYRK1A kinase activity, Z-lyte Ser/Thr 18 peptide, 15 μM ATP; method text calls the value IC50; read-out: EC50 (the source's name)
pIC50: −log10 of the molar value.
recorded-metric: pIC50

molecule=COc1nc(N[C@H]2C[C@](C)(NC(C)=O)C2)nn2ccc(-c3ccc4ncnn4c3)c12 recorded_metric=pIC50 reported_result=9.05
molecule=COc1nc(N[C@H]2CC[C@@H](OCCO)CC2)nn2ccc(-c3ccc4nccn4c3)c12 recorded_metric=pIC50 reported_result=8.59
molecule=COc1nc(N[C@@H]2CCN(C3COC3)CC2(F)F)nn2ccc(-c3ccc4ncnn4c3)c12 recorded_metric=pIC50 reported_result=8.10
molecule=COc1nc(NC[C@@H]2CNCCO2)nn2ccc(-c3ccc4nnn(C)c4c3)c12 recorded_metric=pIC50 reported_result=8.29

a. COc1nc(NC2CCC(=O)N(C)C2)nn2ccc(-c3ccc4nc(C)n(CC(F)F)c4c3)c12 (stereo not drawn)
b. COc1nc(N[C@H]2C[C@@](C)(O)C2)nn2ccc(-c3cc4cnccc4[nH]3)c12
Input: Lower value of pIC50 belongs to which: a or b ? Response format: the label of the selected entry.
Output: b

a. Oc1nc(N[C@@H]2CN(C3COC3)C[C@@H]2F)nn2ccc(-c3cnc4nccn4c3)c12
b. COc1nc(N[C@@H]2CCCOC2)nn2ccc(-c3cnc4nccn4c3)c12
Input: Quick one: lower pIC50, a or b ? Give the label under which the chosen entry appears.
Output: a

---

Target: recombinant DYRK1A kinase (Homo sapiens (Human))
Test: DYRK1A kinase assay (Ser/Thr 18 peptide Z-lyte FRET)
Settings: DYRK1A kinase activity, Z-lyte Ser/Thr 18 peptide, 15 μM ATP; method text calls the value IC50; read-out: EC50 (the source's name)
recorded-metric: IC50 (nM)

1. COc1nc(N[C@H]2CCN(C)CC2(F)F)nn2ccc(-c3ccc4nc(C)n(CC(F)F)c4c3)c12 [Compound 139]
2. COc1nc(NC2CCC3(CC2)CNC3)nn2ccc(-c3ccc4ncnn4c3)c12 [Compound 195]
Input: Which is greater in IC50, the first item 1 or the second item 2 ? Please respond with the label that marks your chosen entry.
Output: 1

---

Target: recombinant DYRK1A kinase (Homo sapiens (Human))
Experiment: DYRK1A kinase assay (Ser/Thr 18 peptide Z-lyte FRET)
Settings: DYRK1A kinase activity, Z-lyte Ser/Thr 18 peptide, 15 μM ATP; method text calls the value IC50; read-out: EC50 (the source's name)
recorded-metric: IC50 (nM)

Below: 4 molecules and their reported IC50.
compound_structure=COc1nc(N[C@H]2CCN(C(C)=O)C[C@H]2F)nn2ccc(-c3cc(F)c4nc(C)n(C(C)C)c4c3)c12 reported_result=0.9
compound_structure=COc1nc(N[C@H](C)c2ccccc2)nn2ccc(-c3cnc4nccn4c3)c12 reported_result=6.8
compound_structure=COc1nc(N[C@H]2C[C@@](C)(NC(C)=O)C2)nn2ccc(-c3ccc4ncnn4c3)c12 reported_result=5.3
compound_structure=COc1nc(N[C@H]2C[C@](C)(NC(=O)C3(C#N)CC3)C2)nn2ccc(-c3ccc4ncnn4c3)c12 reported_result=1

I. COc1nc(N[C@H]2C[C@@](C)(NC(C)=O)C2)nn2ccc(-c3ccc4nnn(CC(F)F)c4c3)c12
II. COc1nc(N[C@@H]2CCN(C)C[C@@H]2F)nn2ccc(-c3ccc4nccn4c3)c12
III. COc1nc(N[C@H]2CCN(CC(C)(C)C#N)C[C@H]2F)nn2ccc(-c3ccc4nnn(CC(F)F)c4c3)c12
IV. COc1nc(N[C@H]2CC[C@@H](NC(C)=O)CC2)nn2cc(F)c(-c3ccc4ncccc4c3)c12
Input: Hey, can you sort those molecules up there by IC50, smallest first? Hello, could you send the labels back in the order asked? Thank you.
Output: I, IV, II, III

---

Target: recombinant DYRK1A kinase (Homo sapiens (Human), UniProt Q13627)
Assay: DYRK1A kinase assay (Ser/Thr 18 peptide Z-lyte FRET)
Settings: DYRK1A kinase activity, Z-lyte Ser/Thr 18 peptide, 15 μM ATP; method text calls the value IC50; read-out: EC50 (the source's name)
recorded-metric: IC50 (nM)

Worked set:
molecule="COc1nc(NC2CCC(C)(C#N)CC2)nn2ccc(-c3ccc4nnn(CC(F)F)c4c3)c12 (centres unmarked)" reported_result=5.7
molecule=COc1nc(N[C@H]2CCN(C)C[C@H]2F)nn2cc(F)c(-c3ccc4nnn(C)c4c3)c12 reported_result=4.9
molecule=COc1nc(N[C@H]2C[C@](C)(O)C2)nn2ccc(-c3ccn4nccc4c3)c12 reported_result=0.6
molecule=COc1nc(N[C@H]2CC[C@](C)(O)CC2)nn2ccc(-c3ccc4nnn(C)c4c3)c12 reported_result=1.5

P. C[C@]1(O)C[C@H](Nc2nc(OC3COC3)c3c(-c4ccc5nccnc5c4)ccn3n2)C1
Q. COc1nc(N[C@H]2CC[C@](C)(O)CC2)nn2ccc(-c3cc(F)c4nnn(CC(F)F)c4c3)c12
Input: Which entry shows the lesser value of IC50 here, P or Q ? // caller expects the label of the chosen entry
Output: Q

---

Biological target: recombinant DYRK1A kinase (Homo sapiens (Human), UniProt Q13627)
Assay: DYRK1A kinase assay (Ser/Thr 18 peptide Z-lyte FRET)
Details: DYRK1A kinase activity, Z-lyte Ser/Thr 18 peptide, 15 μM ATP; method text calls the value IC50; read-out: EC50 (the source's name)
recorded-metric: IC50 (nM)

compound=COc1nc(N[C@H]2CC[C@@](C)(O)CC2)nn2ccc(-c3ccc4nccnc4c3)c12 recorded_metric=IC50 reported_result=3.7
compound=COc1nc(NC2CCC3(CC2)CN(C(C)=O)C3)nn2ccc(-c3cnc4nccn4c3)c12 recorded_metric=IC50 reported_result=1.8
compound=COc1nc(NC2CCC3(CC2)CN(C(C)=O)C3)nn2ccc(-c3ccc4nnn(C)c4c3)c12 recorded_metric=IC50 reported_result=1.9

1. COCC(=O)N[C@]1(C)C[C@@H](Nc2nc(OC)c3c(-c4ccc5nnn(C)c5c4)ccn3n2)C1
2. COc1nc(N[C@@H]2CCN(C3COC3)CC2(F)F)nn2ccc(-c3ccc4nc(C)n(CC(F)F)c4c3)c12
Input: Return label of the item with the larger IC50. Candidates: 1 , 2 . Kindly state the label of the option you pick.
Output: 2

---

Biological target: recombinant DYRK1A kinase (Homo sapiens (Human), UniProt Q13627)
Assay: DYRK1A kinase assay (Ser/Thr 18 peptide Z-lyte FRET)
Format: biochemical
Conditions: DYRK1A kinase activity, Z-lyte Ser/Thr 18 peptide, 15 μM ATP; method text calls the value IC50; read-out: EC50 (the source's name)
pIC50: −log10 of the molar value.
recorded-metric: pIC50

Examples from the recorded data:
compound_structure=CC[C@]1(O)CC[C@H](Nc2nc(OC)c3c(-c4ccc5nnn(CC(F)F)c5c4)ccn3n2)CC1 target_of_assay="recombinant DYRK1A kinase (Homo sapiens (Human), UniProt Q13627)" reported_result=8.55
compound_structure=COc1nc(NC2CCN(CC(F)F)CC2)nn2ccc(-c3ccc4nccn4c3)c12 target_of_assay="recombinant DYRK1A kinase (Homo sapiens (Human), UniProt Q13627)" reported_result=8.31
compound_structure=COc1nc(N[C@H]2CC[C@](C)(O)CC2)nn2ccc(-c3ccc4nc(C)n(CCO)c4c3)c12 target_of_assay="recombinant DYRK1A kinase (Homo sapiens (Human), UniProt Q13627)" reported_result=8.60
compound_structure=COc1nc(N[C@H]2C[C@@](C)(NC(C)=O)C2)nn2ccc(-c3ccc4nc(C)n(CC(F)F)c4c3)c12 target_of_assay="recombinant DYRK1A kinase (Homo sapiens (Human), UniProt Q13627)" reported_result=8.48
compound_structure=CCOc1nc(N[C@H]2C[C@@H](OCCO)C2)nn2ccc(-c3ccn4nccc4c3)c12 target_of_assay="recombinant DYRK1A kinase (Homo sapiens (Human), UniProt Q13627)" reported_result=8.80
compound_structure=COc1nc(N[C@H]2C[C@](C)(NC(C)=O)C2)nn2ccc(-c3cc(F)c4nc(C)n(CC(F)F)c4c3)c12 target_of_assay="recombinant DYRK1A kinase (Homo sapiens (Human), UniProt Q13627)" reported_result=8.82

P. COc1nc(NC2CCN(C3CC(F)(F)C3)CC2)nn2ccc(-c3ccc4ncccc4c3)c12
Q. COc1nc(N[C@H]2CC[C@@](C)(O)CC2)nn2ccc(-c3ccc4nnn(CC(F)F)c4c3)c12
R. CC[C@]1(O)CC[C@H](Nc2nc(OC)c3c(-c4cc(F)c5nccn5c4)ccn3n2)CC1
S. COc1nc(NC2CCN(C3COC3)CC2)nn2ccc(-c3ccc4nccn4c3)c12
Input: Sort low-to-high on pIC50, please. # respond with the labels, arranged in the requested order
Output: P, S, R, Q
